TARGET_OR_TEST_SYSTEM: Recombinant human his-tagged IGF 1R extracellular domain protein (human) (UniProt P08069)
PROCEDURE_DETAILS: SPR, captured IgG, IGF-1R ECD-his analyte, dissociation pH 6
Below is a list of entries, each paired with its recorded kon value.

{"BINDER": "VRDN-02563 (antibody, V domains shown) VH: EVQLVQSGGGLVKPGGSLRLSCAASGFTFSSFAMHWVRQAPGKGLEWISVIHTRGATYYADSVKGRFTISRDNAKNSLYLQMNSLRAEDTAVYYCARLGNFYYHMDVWGQGTTVTVSS VL: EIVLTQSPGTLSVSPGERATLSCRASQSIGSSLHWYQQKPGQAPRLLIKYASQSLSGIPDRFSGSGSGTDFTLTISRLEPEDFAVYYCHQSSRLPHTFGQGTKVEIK", "UNIT_OF_MEASUREMENT": "M⁻¹ s⁻¹", "kon": 102000}
{"BINDER": "VRDN-02533 (antibody, V domains shown) VH: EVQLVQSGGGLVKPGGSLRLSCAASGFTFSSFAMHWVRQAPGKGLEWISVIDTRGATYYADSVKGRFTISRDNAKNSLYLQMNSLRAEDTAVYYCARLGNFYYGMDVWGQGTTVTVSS VL: EIVLTQSPGTLSVSPGERATLSCRASQSHGSSLHWYQQKPGQAPRLLIKYASQSLSGIPDRFSGSGSGTDFTLTISRLEPEDFAVYYCHQSSRLPHTFGQGTKVEIK", "UNIT_OF_MEASUREMENT": "M⁻¹ s⁻¹", "kon": 20300}
{"BINDER": "VRDN-02506 (antibody, V domains shown) VH: EVQLVQSGGGLVKPGGSLRLSCAASGFTFSHFAMHWVRQAPGKGLEWISVIDTRGATYYADSVKGRFTISRDNAKNSLYLQMNSLRAEDTAVYYCARLGNFYYGMDVWGQGTTVTVSS VL: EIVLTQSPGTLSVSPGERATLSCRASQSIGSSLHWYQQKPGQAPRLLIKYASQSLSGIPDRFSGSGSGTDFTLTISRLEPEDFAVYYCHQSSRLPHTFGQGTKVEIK", "UNIT_OF_MEASUREMENT": "M⁻¹ s⁻¹", "kon": 37400}
